- Test system: MCF7 breast
- METHOD: NCI-60 one-dose screen, 48 h (100 = growth as untreated, 0 = no growth, -100 = all killed)
- CONDITION: 10 µM unless noted
About 83,000 compounds went through this panel and 20% of them were active in at least one assay; those are over-represented in the sample as a whole.
Let's look at some molecules and their measured growth.
Record the value in %, omitting the unit from your answer.

As a guide, the following entries are already answered.
CN1CCN(Cc2ccc(NC(=O)c3nc4ccc5[nH]ncc5c4c4c3CCC4)cc2C(F)(F)F)CC1; -29.7
O=C(Nc1ccc(Cl)c(Cl)c1)NS(=O)(=O)c1cnccc1Oc1ccc(F)cc1; 58.6
Fc1ccccc1-c1nc(-c2nc3cc(Cl)c(Cl)cc3[nH]2)c2ccccn12; 40.5
CCCCOc1ccc(/C=C2/SC(N3CCCC3)=NC2=O)cc1; 107

// recorded growth for `Fc1ccc(-c2nc(-c3nc4ncccc4[nH]3)cc3c2[nH]c2ccccc23)cc1F` : 38.7

// recorded growth for O=C(Oc1ccccc1[N+](=O)[O-])C1CCCN1C(=O)OCc1ccccc1 (stereo unspecified) : 95.6

// recorded growth for `Cn1ccc(=O)c(S(N)(=O)=O)c1` : 111

// recorded growth for `COc1ccc2cc(-c3ccc(-c4ccc(C(=N)N)cc4)s3)ccc2c1` : 73.2

// recorded growth for `CCOC(=O)c1cn2c3c(cccc3c1=O)C(=O)/C(=C/c1cccc(Cl)c1Cl)C2` : 96.2

// recorded growth for `COc1ccc(N2CCN(Cc3cc(C(=O)/C=C/c4c[nH]c5ccccc45)ccc3O)CC2)cc1` : 97.4
